Sourced from patent US20230233584A1

Assay: Psilocybin and psilocin plasma pharmacokinetics after s.c. psilocybin
Format: in vivo, rats
Conditions: rat, sc; psilocin in plasma after psilocybin 0.1 mg/kg s.c., rats; read-out: Apparent t1/2, Mean (converted)
Measured Quantity: half-life (min)
The answer is to be given in min; state only the numeric part.

CN(C)CCc1c[nH]c2cccc(O)c12 [psilocin, 4-hydroxy-N,N-dimethyltryptamine] yielded half-life of 55.1

====

Test: Psilocybin and psilocin plasma pharmacokinetics after s.c. psilocybin
Type: in vivo, rats
Conditions: rat, plasma, subcutaneous; after psilocybin 10 mg/kg s.c., rats, 2 h
Measured Quantity: concentration at 2 h (ng/mL)
The answer is to be given in ng/mL; state only the numeric part.

CN(C)CCc1c[nH]c2cccc(O)c12 [psilocin, 4-hydroxy-N,N-dimethyltryptamine] yielded concentration at 2 h of 713

====

Assay: Psilocybin and psilocin plasma pharmacokinetics after s.c. psilocybin
Format: in vivo, rats
Details: rat, plasma, subcutaneous; after psilocybin 0.05 mg/kg s.c., rats, 1 h
Measured Quantity: concentration at 1 h
Put down the number, then write its unit next to it.

CN(C)CCc1c[nH]c2cccc(O)c12 [psilocin, 4-hydroxy-N,N-dimethyltryptamine] yielded concentration at 1 h of 5.91 ng/mL

====

Assay: Psilocybin and psilocin plasma pharmacokinetics after s.c. psilocybin
Assay type: in vivo, rats
Details: rat, plasma, subcutaneous; after psilocybin 1 mg/kg s.c., rats, 6 h
Measured Quantity: concentration at 6 h
Put down the number, then write its unit next to it.

CN(C)CCc1c[nH]c2cccc(O)c12 [psilocin, 4-hydroxy-N,N-dimethyltryptamine] yielded concentration at 6 h of 1.34 ng/mL

====

Experiment: Psilocybin and psilocin plasma pharmacokinetics after s.c. psilocybin
Assay type: in vivo, rats
Conditions: rat, sc; psilocin in plasma after psilocybin 0.1 mg/kg s.c., rats
Measured Quantity: Tmax (min)
The answer is to be given in min; state only the numeric part.

CN(C)CCc1c[nH]c2cccc(O)c12 [psilocin, 4-hydroxy-N,N-dimethyltryptamine] yielded Tmax of 32.2

====

Assay: Psilocybin and psilocin plasma pharmacokinetics after s.c. psilocybin
Format: in vivo, rats
Conditions: rat, plasma, sc, 0.05 mg/kg, psilocin in plasma after psilocybin 0.05 mg/kg s.c., rats; read-out: Cmax, Mean
Measured Quantity: Cmax (ng/mL)
The answer is to be given in ng/mL; state only the numeric part.

CN(C)CCc1c[nH]c2cccc(O)c12 [psilocin, 4-hydroxy-N,N-dimethyltryptamine] yielded Cmax of 7.14

====

Assay: Psilocybin and psilocin plasma pharmacokinetics after s.c. psilocybin
Format: in vivo, rats
Conditions: rat, sc; psilocin in plasma after psilocybin 1 mg/kg s.c., rats; read-out: AUC0-tlast, Mean
Measured Quantity: AUC(0-t) (ng·h/mL)
The answer is to be given in ng·h/mL; state only the numeric part.

CN(C)CCc1c[nH]c2cccc(O)c12 [psilocin, 4-hydroxy-N,N-dimethyltryptamine] yielded AUC(0-t) of 117

====

Experiment: Psilocybin and psilocin plasma pharmacokinetics after s.c. psilocybin
Type: in vivo, rats
Conditions: rat, sc; psilocin in plasma after psilocybin 1 mg/kg s.c., rats; read-out: MRT0-inf, Mean
Measured Quantity: MRT inf
Put down the number, then write its unit next to it.

CN(C)CCc1c[nH]c2cccc(O)c12 [psilocin, 4-hydroxy-N,N-dimethyltryptamine] yielded MRT inf of 1.53 h

====

Experiment: Psilocybin and psilocin plasma pharmacokinetics after s.c. psilocybin
Type: in vivo, rats
Settings: rat, plasma, subcutaneous; after psilocybin 10 mg/kg s.c., rats, 4 h
Measured Quantity: concentration at 4 h (ng/mL)
The answer is to be given in ng/mL; state only the numeric part.

CN(C)CCc1c[nH]c2cccc(O)c12 [psilocin, 4-hydroxy-N,N-dimethyltryptamine] yielded concentration at 4 h of 269
